Target: human δ opioid receptors (hDOR) (Homo sapiens, UniProt P41143)
Construct: expressed in transfected cells; host or cells: HN9.10 neuroblastoma cell line, pCDNA3, neomycin-selected clones
Sequence (P41143 whole entry): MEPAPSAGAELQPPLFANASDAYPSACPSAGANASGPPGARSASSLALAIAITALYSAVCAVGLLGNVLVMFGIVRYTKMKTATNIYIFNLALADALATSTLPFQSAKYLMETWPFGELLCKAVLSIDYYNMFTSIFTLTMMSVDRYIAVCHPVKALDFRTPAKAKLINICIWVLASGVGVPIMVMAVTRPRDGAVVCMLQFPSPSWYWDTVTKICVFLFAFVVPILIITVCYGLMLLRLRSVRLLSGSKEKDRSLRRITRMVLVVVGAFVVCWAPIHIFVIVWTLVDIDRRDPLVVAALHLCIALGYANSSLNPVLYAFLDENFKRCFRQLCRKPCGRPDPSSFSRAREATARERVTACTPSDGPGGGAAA
Test: [35S]GTP-γ-S binding assay, hDOR
Format: biochemical
Conditions: Table 39; read-out: GTP binding hDOR Emax
measured-parameter: Emax
Include the unit after the number when you answer.

For record `CSCC[C@H](NC(=O)[C@H](Cc1ccccc1)NC(=O)CNC(=O)[C@@H](C)NC(=O)[C@@H](N)Cc1ccc(O)cc1)C(=O)N1CCC[C@H]1C(=O)N[C@@H](CC(C)C)C(=O)N[C@@H](Cc1c[nH]c2ccccc12)C(=O)N(C)Cc1cc(C(F)(F)F)cc(C(F)(F)F)c1` the listed Emax is 59%

Summary for this compound, `CCCC[C@H](NC(=O)[C@H](Cc1ccccc1)NC(=O)CNC(=O)[C@@H](C)NC(=O)[C@@H](N)Cc1ccc(O)cc1)C(=O)N1CCC[C@H]1C(=O)N[C@@H](CC(C)C)C(=O)N[C@@H](Cc1c[nH]c2ccccc12)C(=O)OCc1cc(C(F)(F)F)cc(C(F)(F)F)c1` : Emax is 131%

Summary for this compound, `COc1cc(COC(=O)[C@H](Cc2c[nH]c3ccccc23)NC(=O)[C@H](CC(C)C)NC(=O)[C@@H]2CCCN2C(=O)[C@H](CCSC)NC(=O)[C@H](Cc2ccccc2)NC(=O)CNC(=O)[C@@H](C)NC(=O)[C@@H](N)Cc2ccc(O)cc2)cc(OC)c1` : Emax is 61%

// Emax value for CC(C)C[C@H](NC(=O)[C@@H]1CCCN1C(=O)[C@H]1CSSC[C@@H](NC(=O)[C@@H](N)Cc2ccc(O)cc2)C(=O)NCC(=O)N[C@@H](Cc2ccccc2)C(=O)N1)C(=O)N[C@@H](Cc1c[nH]c2ccccc12)C(=O)NCc1cc(C(F)(F)F)cc(C(F)(F)F)c1 [TY037, [D-Cys^2, D-Cys^5]TY027] : 26%
